Molecular target: T1, zinc-transporting PIB-ATPase ZntA from Shigella sonnei (Shigella sonnei (UniProt Q3YW59, strain …, UniProt Q3YW59))
T1 construct: HisTag removed with TEVp; also called SsZntA; HisTag-free SsZntA; not shown: His8, N-terminal, cleaved
T1 sequence (Q3YW59 whole entry, one chain of several): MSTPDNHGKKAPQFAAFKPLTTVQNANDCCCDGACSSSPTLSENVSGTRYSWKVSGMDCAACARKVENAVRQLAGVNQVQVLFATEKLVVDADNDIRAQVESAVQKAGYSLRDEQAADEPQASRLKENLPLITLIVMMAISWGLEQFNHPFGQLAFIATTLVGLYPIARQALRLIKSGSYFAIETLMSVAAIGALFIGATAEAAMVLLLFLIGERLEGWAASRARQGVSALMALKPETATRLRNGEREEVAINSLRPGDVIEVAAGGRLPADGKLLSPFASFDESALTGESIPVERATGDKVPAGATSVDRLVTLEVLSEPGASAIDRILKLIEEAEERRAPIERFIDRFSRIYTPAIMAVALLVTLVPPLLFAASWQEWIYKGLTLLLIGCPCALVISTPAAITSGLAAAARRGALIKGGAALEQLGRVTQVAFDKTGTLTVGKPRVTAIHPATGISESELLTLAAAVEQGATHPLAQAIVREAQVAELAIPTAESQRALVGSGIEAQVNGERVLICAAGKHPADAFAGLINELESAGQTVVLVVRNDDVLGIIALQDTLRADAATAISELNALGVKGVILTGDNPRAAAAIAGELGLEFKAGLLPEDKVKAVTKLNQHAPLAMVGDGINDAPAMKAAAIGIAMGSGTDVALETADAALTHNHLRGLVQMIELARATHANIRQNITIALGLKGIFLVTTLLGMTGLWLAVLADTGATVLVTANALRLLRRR
Assay: SEC
Conditions: both partners purified
PROPERTY_LABEL: binding result

Look over these answered cases.
>>> experimental_result("Nb8 (VHH, also called nanobody 8; source: E. coli BL21, purified (Ni2+ beads, SEC); not shown: His6, C-terminal, kept) VHH: QVQLVETGGGLVQAGGSLRLSCAASGRAFSSYGMGWFRQAPGKEREFVAAVSGSGATTIYADSVKGRFTISRDNAVNTVYLHMNDLKPDDTAVYYCAVGKYYSGSRQSHNYDYWGQGTQVTVSS")
"binds"
>>> experimental_result("Nb1 (VHH, also called nanobody 1; source: E. coli BL21, purified (Ni2+ beads, SEC); not shown: His6, C-terminal, kept) VHH: QVQLVESGGGLVQAGDSLRLSCAASGRTFSNYAMGWFRQAPGKEREFVAAISGGGGTTYYSDSVKGRFTISRDNAKSTVYLQMNSLKPEDTAVYFCASSTYYMPSRAADTYTYWGQGTQVTVSS")
"binds"
>>> experimental_result("Nb4 (VHH, also called nanobody 4; source: E. coli BL21, purified (Ni2+ beads, SEC); not shown: His6, C-terminal, kept) VHH: QVQLVESGGGVVQTGGSLRLSCAASGRTFSTYGMGWFRQAPGKEREFVAAISGSGGMTYYGDPVKGRFTISRDNAVNTVYLQMNNLKPEDTAVYICAVGAYYSGGSRAQNYEYWGQGTQVTVSS")
"binds"
>>> experimental_result("Nb9 (VHH, also called nanobody 9; source: E. coli BL21, purified (Ni2+ beads, SEC); not shown: His6, C-terminal, kept) VHH: QLQLVESGGGVVQAGGSLRLSCAASGRTFSSYGMGWFRQAPGKEREFASAISGSGGSTYYADSVKGRFTISRDNAKNTVYLQMNSLKPEDTAVYYCARSRYYSGGRSLLEYDYWGQGTQVTVSS")
"binds"
>>> experimental_result("Nb5 (VHH, also called nanobody 5; source: E. coli BL21, purified (Ni2+ beads, SEC); not shown: His6, C-terminal, kept) VHH: QVQLVESGGGVVQTGGSLRLSCAASGRTFSTYGMGWFRQAPGKEREFVAAISGSGGMTYYGDPVKGRFTISRDNAVNTVYLQMNNLKAEDTAVYVCAVGAYYSGGSRAQNYEYWGQGTQVTVSS")
"binds"

Now look at this entry.
Entry Nb2 (VHH, also called nanobody 2; source: E. coli BL21, purified (Ni2+ beads, SEC); not shown: His6, C-terminal, kept) VHH: QLQLVETGGGLVQAGDSLRLSCAASGRTFSNYAMGWFRQAPGKEREFVAAISGGGGTTYYSDSVKGRFTISRDNAKSTVYLQMNSLKPEDTAVYFCASSTYYMPSRAADTYTYWGQGTQVTVSS — recorded binding result = binds
